Target: TYK2 (Homo sapiens)
Construct: endogenous in cells; host or cells: Molt4 (ATCC CRL-1582) and Ramos (ATCC CRL-1596), mixed lysate 1:2
Sequence (P29597 whole entry): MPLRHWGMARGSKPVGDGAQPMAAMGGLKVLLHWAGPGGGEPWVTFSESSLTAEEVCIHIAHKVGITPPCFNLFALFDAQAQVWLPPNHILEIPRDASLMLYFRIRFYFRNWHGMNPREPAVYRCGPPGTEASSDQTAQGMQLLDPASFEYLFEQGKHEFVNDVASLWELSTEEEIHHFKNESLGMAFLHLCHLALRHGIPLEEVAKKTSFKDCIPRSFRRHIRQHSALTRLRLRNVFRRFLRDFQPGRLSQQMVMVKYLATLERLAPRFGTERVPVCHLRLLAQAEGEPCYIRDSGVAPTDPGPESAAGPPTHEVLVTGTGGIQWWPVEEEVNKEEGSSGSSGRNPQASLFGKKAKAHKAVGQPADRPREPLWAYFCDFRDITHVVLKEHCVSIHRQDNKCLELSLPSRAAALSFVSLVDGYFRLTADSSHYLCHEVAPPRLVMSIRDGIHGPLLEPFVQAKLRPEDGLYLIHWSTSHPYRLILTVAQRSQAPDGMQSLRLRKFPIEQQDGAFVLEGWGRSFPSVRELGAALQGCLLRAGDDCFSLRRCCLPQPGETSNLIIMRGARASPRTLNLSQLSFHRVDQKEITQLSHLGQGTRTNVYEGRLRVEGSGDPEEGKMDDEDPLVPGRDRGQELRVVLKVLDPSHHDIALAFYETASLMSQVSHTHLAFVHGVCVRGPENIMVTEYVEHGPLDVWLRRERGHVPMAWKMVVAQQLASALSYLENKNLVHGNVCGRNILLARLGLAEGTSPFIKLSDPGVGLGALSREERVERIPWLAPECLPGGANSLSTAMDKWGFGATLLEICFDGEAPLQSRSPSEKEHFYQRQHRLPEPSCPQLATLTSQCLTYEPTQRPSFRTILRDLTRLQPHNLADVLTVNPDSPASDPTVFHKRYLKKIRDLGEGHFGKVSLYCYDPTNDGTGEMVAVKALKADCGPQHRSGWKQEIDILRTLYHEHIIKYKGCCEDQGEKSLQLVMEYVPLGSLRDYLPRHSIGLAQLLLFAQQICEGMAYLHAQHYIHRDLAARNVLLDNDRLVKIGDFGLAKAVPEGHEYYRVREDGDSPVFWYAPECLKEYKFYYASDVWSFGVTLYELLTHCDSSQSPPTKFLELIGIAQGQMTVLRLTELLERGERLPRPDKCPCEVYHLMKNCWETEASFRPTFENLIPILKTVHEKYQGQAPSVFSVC
Experiment: Kinobeads assay, TYK2 (competition binding in mixed Molt4/Ramos cell lysate, dot blot detection)
Conditions: Kinobeads assay, Molt4/Ramos lysate; read-out: TYK2 Band (Kinobeads assay potency, IC50)
quantity-name: IC50

CC(C)(C)OC(=O)N1CC2CCC1CN2C(=O)Cn1cc(Nc2ncc(Cl)c(NCc3ccccc3)n2)cn1 (stereo not shown); 100 to 1000 nM

IC50 recorded for this compound, CN(C)CCNC(=O)Cn1cc(Nc2ncc(Cl)c(NCc3ccccc3)n2)cn1 , is 100 to 1000 nM

IC50 recorded for this compound, CS(=O)(=O)NCc1cccc(CNc2nc(Nc3cnn(CCO)c3)ncc2F)c1 , is 100 to 1000 nM

IC50 recorded for this compound, Cc1noc(Cn2cc(Nc3ncc(Cl)c(NCc4c(F)cccc4F)n3)cn2)n1 , is 100 to 1000 nM
